- target: p38alpha wt (Homo sapiens)
- Construct: made in house; host or cells: E. coli XL10-Gold
- Sequence (Q16539 whole entry): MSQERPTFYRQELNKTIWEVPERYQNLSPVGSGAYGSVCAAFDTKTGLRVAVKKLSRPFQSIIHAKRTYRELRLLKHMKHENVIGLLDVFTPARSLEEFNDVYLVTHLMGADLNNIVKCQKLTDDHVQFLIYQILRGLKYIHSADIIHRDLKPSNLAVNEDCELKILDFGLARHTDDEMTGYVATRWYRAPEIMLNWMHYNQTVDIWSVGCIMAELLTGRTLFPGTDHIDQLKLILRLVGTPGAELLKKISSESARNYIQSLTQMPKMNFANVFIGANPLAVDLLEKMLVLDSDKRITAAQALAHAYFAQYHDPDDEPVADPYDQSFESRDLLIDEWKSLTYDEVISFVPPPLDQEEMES
- test: site-mutated p38 phosphorylation cascade assay, wild type
- Type: biochemical
- assay-conditions: compound 10 uM
measured-property: inhibition at 10 µM (%)

Check out these entries, answers already filled in.
>>> value_measured("CCOC(=O)c1ccc(Nc2nc3nonc3nc2N2CCN(Cc3ccccc3C)CC2)cc1")
31
>>> value_measured("CCOC(=O)c1ccc(Nc2nc3nonc3nc2N2CCN(Cc3cccc(Cl)c3)CC2)cc1")
34
>>> value_measured("CCOC(=O)c1ccc(Nc2nc3nonc3nc2N2CCC(Sc3ccc(C)cc3)CC2)cc1")
61
>>> value_measured("Cc1ccc(SC2CCN(c3nc4nonc4nc3-c3cccc(C(=O)OC(C)C)c3)CC2)cc1")
31

[P] CCCNC(=O)c1ccc(Nc2nc3nonc3nc2N2CCC(Sc3ccc(C)cc3)CC2)cc1
[Q] CCOC(=O)c1ccc(Nc2nc3nonc3nc2N2CCC(Oc3ccncc3)CC2)cc1
**Q:** Given the listed items, does P or Q have the lesser reported inhibition at 10 µM? Write the label of whichever entry you select.
**A:** Q
(Q: 47%, P: 90%)

----------
- target: p38alpha (Homo sapiens)
- Construct: purchased Invitrogen PV3305
- test: p38 cascade kinase reaction (inactive p38alpha, MKK6, ATF2, ADP-Glo)
- Format: biochemical
- assay-conditions: compound 10 μM; read-out: inhibition p38a/ATF-2 (p38 cascade)
measured-property: inhibition at 10 µM (%)

>>> value_measured("CCOCCCNc1nc2nnnn2c2sc3c(c12)CCN(Cc1ccccc1)C3 [Compound 6]")
107
>>> value_measured("CC(C)n1nnnc1C(c1ccc(O)cc1)N1CCN(c2nc3ccccc3s2)CC1 (centres unmarked) [Compound 5]")
28
>>> value_measured("Oc1nc(N/N=C/c2ccc3c(c2)OCO3)nc(N2CCOCC2)n1 [Compound 7]")
16

[1] O=S(=O)(c1cnccc1N1CCN(CCO)CC1)N1CCOCC1 [Compound 11]
[2] Nc1ccc(OCC(O)C[n+]2ccc(CCS(=O)(=O)[O-])cc2)cc1 (centres unmarked) [Compound 4]
**Q:** Pick one, 1 or 2 : lowest reported inhibition at 10 µM. Pick one; state its label.
**A:** 1

----------
- Test system: THP-1 cells
- test: survival of monocytes with LPS
- Type: cell-based, human
- assay-conditions: 0.1 uM
measured-property: Cell survival (%)
# unit: % | format: bare number

**Q:** Provide measured Cell survival on THP-1 cells for `CCOC(=O)c1ccc(Nc2nc3nonc3nc2Nc2ccc(C(=O)c3ccccc3)cc2)cc1` please.
**A:** 86

**Q:** Please report Cell survival with THP-1 cells for item `COC(=O)c1ccc(Nc2nc3nonc3nc2N2CCC(Oc3ccc(Cl)cc3)CC2)cc1` .
**A:** 101

**Q:** Give Cell survival for `Cc1cc(C(=O)NCC(C)C)ccc1Nc1nc2nonc2nc1N1CCC(Cc2ccccc2)CC1` tested on THP-1 cells.
**A:** 98

**Q:** Answer briefly: Cell survival recorded on THP-1 cells for `CCOC(=O)c1ccc(Nc2nc3nonc3nc2N2CCC(Sc3ccc(Cl)cc3)CC2)cc1`
**A:** 88

**Q:** Recall the reported Cell survival of `CC(C)NC(=O)c1ccc(Nc2nc3nonc3nc2N2CCC(Cc3ccccc3)CC2)cc1` when tested on THP-1 cells.
**A:** 90
